- test_system: menin protein (Homo sapiens (Human), UniProt O00255)
- Sequence (O00255 whole entry): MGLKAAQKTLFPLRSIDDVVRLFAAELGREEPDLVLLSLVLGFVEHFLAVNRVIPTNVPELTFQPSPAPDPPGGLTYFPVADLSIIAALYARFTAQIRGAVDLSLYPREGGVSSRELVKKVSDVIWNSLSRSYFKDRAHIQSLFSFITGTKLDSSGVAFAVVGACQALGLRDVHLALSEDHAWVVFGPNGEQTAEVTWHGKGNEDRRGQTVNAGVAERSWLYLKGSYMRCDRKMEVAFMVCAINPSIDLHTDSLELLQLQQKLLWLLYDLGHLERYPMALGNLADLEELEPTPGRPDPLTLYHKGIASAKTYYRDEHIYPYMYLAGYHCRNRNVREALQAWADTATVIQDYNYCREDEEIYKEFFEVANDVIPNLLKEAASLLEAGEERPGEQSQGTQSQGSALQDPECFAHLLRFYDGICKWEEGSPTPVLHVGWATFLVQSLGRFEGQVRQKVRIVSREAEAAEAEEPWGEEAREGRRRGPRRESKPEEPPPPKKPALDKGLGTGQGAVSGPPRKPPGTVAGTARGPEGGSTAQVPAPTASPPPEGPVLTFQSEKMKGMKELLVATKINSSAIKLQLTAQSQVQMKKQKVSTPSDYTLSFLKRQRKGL
- protocol: biochemical
- Type: binding
- condition_notes: FP competitive binding; menin protein 4 nM, FAM-MM2 probe 2 nM; read-out: Menin Binding Affinity IC50
pIC50: −log10 of the molar value.
Quick rule: pIC50 of at least 6 means rule met, below that means rule not met.

Record excerpt, results attached:
CCN1Cc2ccccc2C(C2CCN(CC3CN(c4ccc(S(=O)(=O)c5ccn(C)c5)cc4)C3)CC2)([C@H]2CCC[C@@H]2NC(=O)NC)C1 (mixture of isomers) | rule met
COC(=O)N[C@H]1CCC[C@@H]1C(C#N)(c1ccccc1)C1CCN(CC2CN(c3ccc(S(=O)(=O)C4CC4)cc3Cl)C2)CC1 (mixture of isomers) | rule met
CS(=O)(=O)c1ccc(N2CC(CN3CCC(C(C#N)(c4ccccc4)C4CCC(=O)C4)CC3)C2)cc1 (stereo not shown) | rule not met
CN1CCC(C2(C3C=CCCN3)CN(C)Cc3ccccc32)CC1 (stereo not shown) | rule not met
CCN1Cc2ccccc2C(C2CCN(CC3CN(c4ccc(S(=O)(=O)C5CC5)cc4)C3)CC2)([C@H]2CCC[C@@H]2NC(=O)NC)C1 (mixture of isomers) | rule met

Now examine the next entry.
Say whether CC1CN(CCCOc2ccc(C#N)cc2)CCC1C(C#N)(c1ccccc1)C1CCCC1 (stereo not shown) shows pIC50 of 6 or more.
rule not met

----------
- test_system: menin protein (Homo sapiens (Human))
- protocol: biochemical
- Format: binding
- condition_notes: FP competitive binding; menin protein 4 nM, FAM-MM2 probe 2 nM; read-out: Menin Binding Affinity IC50
pIC50: −log10 of the molar value.
Quick rule: pIC50 of at least 6 means 1, below that means 0.

Record excerpt, results attached:
CN1Cc2ccccc2C(C2CCCC2)(C2CCN(CC3CN(c4ccc(S(C)(=O)=O)cc4)C3)CC2)C1 (stereo not shown) | 1
CC(=O)O[C@@H]1CCC[C@H]1C(C#N)(c1cccc(C(F)(F)F)c1)C1CCN(CC2CN(c3ccc(C#N)cc3)C2)CC1 (mixture of isomers) | 0
CNC(=O)N[C@H]1CCC[C@@H]1C1(C2CCN(CC3CN(c4ccc(S(=O)(=O)C5CC5)cc4)C3)CC2)CN(C)Cc2ccccc21 (mixture of isomers) | 1

Say whether O=S(=O)(c1ccncc1)c1ccc(N2CC(CN3CCC(C4(C5CCCC5)CNCc5ccccc54)CC3)C2)cc1 (stereo not shown) shows pIC50 of 6 or more.
1

----------
- test_system: menin protein (Homo sapiens (Human))
- protocol: biochemical
- Assay type: binding
- condition_notes: FP competitive binding; menin protein 4 nM, FAM-MM2 probe 2 nM
observable: Menin Binding Affinity IC50 (μM)

COC1CCC(C2(C3CCN(CCCOc4ccc(C#N)cc4)CC3)C(=O)NCc3ccccc32)C1 (stereo not shown) [compound 26] | No inhibition
CCN1Cc2ccccc2C(C2CCCC2)(C2CCN(S(=O)(=O)C3CN(c4ccc(S(=O)(=O)c5ccncc5)cc4)C3)CC2)C1 (stereo not shown) [compound 160] | No inhibition
CC(=O)O[C@@H]1CCC[C@H]1C(C#N)(c1ccccc1)C1CCN(CC#Cc2ccc(C#N)cc2)CC1 (mixture of isomers) [compound 387] | No inhibition
CCN1Cc2ccccc2C(C2CCCC2)(C2CCN(S(=O)(=O)C3CN(c4ccc(C#N)cc4)C3)CC2)C1 (stereo not shown) [compound 159] | No inhibition

----------
- test_system: menin protein (Homo sapiens (Human))
- protocol: biochemical
- Type: binding
- condition_notes: FP competitive binding; menin protein 4 nM, FAM-MM2 probe 2 nM; read-out: Menin Binding Affinity IC50
pIC50: −log10 of the molar value.
Quick rule: pIC50 of at least 6 means yes, below that means no.

Record excerpt, results attached:
N#Cc1ccc(OCCCN2CCC(C3(C4CCCC4)COCc4ccccc43)CC2)cc1 (stereo not shown) | no
CCN1Cc2ccccc2C(C2CCCC2)(C2CCN(CC3CN(c4ccc(S(=O)(=O)c5ccc(C(=O)O)cc5)cc4)C3)CC2)C1 (stereo not shown) | yes
N#Cc1ccc(OCCN2CCC(CC3(C4CCCC4)NCCc4ccccc43)CC2)cc1 (stereo not shown) | no
CC(=O)N1CCC[C@@H]1C(C#N)(c1ccccc1)C1CCN(CCCOc2ccc(C#N)cc2)CC1 (stereo partly shown) | no
N#Cc1cc2ccc(C(=O)N3CCC(CC4(C5CCCC5)NCCc5ccccc54)CC3)cc2[nH]1 (stereo not shown) | no

Say whether CS(=O)(=O)c1ccc(N2CC(CN3CCC(C(C#N)(c4ccccc4)[C@@H]4CCC[C@H]4O)CC3)C2)cc1 (mixture of isomers) shows pIC50 of 6 or more.
no

Say whether CCCCC(=O)c1cc2cc(CCN3CCC(C4(C5CCCC5)NCCc5ccccc54)CC3)ccc2n1C (stereo not shown) shows pIC50 of 6 or more.
no

Say whether CCC(CC)C1(C2CCN(CCCOc3ccc(C#N)cc3)CC2)NCCc2ccccc21 (stereo not shown) shows pIC50 of 6 or more.
no

----------
- test_system: menin protein (Homo sapiens (Human), UniProt O00255)
- protocol: biochemical
- Type: binding
- condition_notes: FP competitive binding; menin protein 4 nM, FAM-MM2 probe 2 nM; read-out: Menin Binding Affinity IC50
Rule: IC50 below 3000 nM gives rule met. Equal to or above 3000 nM gives rule not met.

CN1Cc2cccc(F)c2C(C2CCCC2)(C2CCN(CCCOc3ccc(C#N)cc3)CC2)C1 (stereo not drawn) | rule met
N#Cc1ccc(OCCCN2CCC(C3(C4CCCS4(=O)=O)NCCc4ccccc43)CC2)cc1 (stereo not drawn) | rule not met

For this molecule, is IC50 lower than 3000 nM? CNC(=O)O[C@@H]1CCC[C@H]1C(Cn1ccnc1)(c1ccccc1)C1CCN(CC2CN(c3ccc(S(=O)(=O)c4ccccc4)cc3)C2)CC1 (mixture of isomers)
rule met

For this molecule, is IC50 lower than 3000 nM? CC(C)C(=O)O[C@@H]1CCC[C@H]1C(C#N)(c1ccccc1)C1CCN(CC2CN(c3ccc(S(=O)(=O)c4ccncc4)cc3)C2)CC1 (mixture of isomers)
rule not met

For this molecule, is IC50 lower than 3000 nM? CC(=O)O[C@H]1CCC[C@@H]1C(C#N)(c1cccc(F)c1)C1CCN(CC2CN(c3ccc(C#N)cc3)C2)CC1 (mixture of isomers)
rule met

For this molecule, is IC50 lower than 3000 nM? CS(=O)(=O)c1ccc(N2CC(CN3CCC(C4(C5CCCC5)C(=O)N(Cc5ccccc5)Cc5ccccc54)CC3)C2)cc1 (stereo not drawn)
rule met

----------
- protocol: Cell growth inhibition, CellTiter-Glo Luminescent Cell Viability Assay
- Type: cell-based
- condition_notes: MOLM-13, 96 h, read-out: Cell Growth Inhibition IC50 (μM) MOLM13, MOLM13 cells, 4 days, CellTiter-Glo
observable: IC50

Worked examples, 3 compounds total:
CC(=O)O[C@H]1CCC[C@@H]1C1(C2CCN(CC3CN(c4ccc(S(=O)(=O)c5ccncc5)cc4)C3)CC2)CN(C)Cc2ccccc21 (mixture of isomers) [compound 206] | 0.411 µM
CCN1Cc2ccccc2C(C2CCN(CC3CN(c4ccc(S(=O)(=O)c5cnn(C)c5)cc4)C3)CC2)([C@H]2CCC[C@@H]2NC(C)=O)C1 (mixture of isomers) [Cpd. No. 292] | 1.34 µM
CNC(=O)O[C@H]1CCC[C@@H]1C(C#N)(c1ccccc1)C1CCN(CC2CN(c3ccc(S(=O)(=O)c4ccn(C)n4)cc3)C2)CC1 (mixture of isomers) [compound 230] | 0.25 µM

// next entry
Give me measured IC50, please, for this compound: COC(=O)N[C@H]1CCC[C@@H]1C(C#N)(c1ccccc1)C1CCN(CC2CN(c3ccc(S(=O)(=O)c4cnn(C)c4)cc3)C2)CC1 (mixture of isomers) [Cpd. No. 349]
0.87 µM

----------
- test_system: menin protein (Homo sapiens (Human))
- protocol: biochemical
- Type: binding
- condition_notes: FP competitive binding; menin protein 4 nM, FAM-MM2 probe 2 nM; read-out: Menin Binding Affinity IC50
// reported IC50 per item
Please reply with the bare figure in nM and do not write the unit itself.

Give me measured IC50, please, for this compound: CN(C)C(=O)O[C@H]1CCC[C@@H]1C(C#N)(c1ccccc1)C1CCN(CC2CN(c3ccc(S(=O)(=O)c4ccncc4)cc3)C2)CC1 (mixture of isomers)
261

Give me measured IC50, please, for this compound: CO[C@H]1CCC[C@@H]1C1(C2CCN(CCCOc3ccc(C#N)cc3)CC2)CN(C)Cc2ccccc21 (mixture of isomers)
1800

Give me measured IC50, please, for this compound: N#Cc1ccc(N2CCCC(CN3CCC(C4(C5CCCC5)NCCc5ccccc54)CC3)C2)cc1 (stereo not drawn)
4000

----------
- test_system: menin protein (Homo sapiens (Human), UniProt O00255)
- protocol: biochemical
- Assay type: binding
- condition_notes: FP competitive binding; menin protein 4 nM, FAM-MM2 probe 2 nM; read-out: Menin Binding Affinity IC50
// reported pIC50 per item
As a rule, pIC50 stands for the negative log10 of the concentration, concentration in M.

CNC(=O)O[C@H]1CCC[C@@H]1C(Cn1ccnc1)(c1ccccc1)C1CCN(CC2CN(c3ccc(S(=O)(=O)c4ccccc4)cc3)C2)CC1 (mixture of isomers) | 7.92
CC(=O)N[C@H]1CCC[C@@H]1C(C#N)(c1ccccc1)C1CCN(CC2CN(c3ccc(S(=O)(=O)C4CC4)cc3)C2)CC1 (mixture of isomers) | 7.54

Give me measured pIC50, please, for this molecule: CNC(=O)O[C@H]1CCC[C@@H]1C(C#N)(c1ccccc1)C1CCN(CCCOc2ccc(C#N)cc2)CC1 (mixture of isomers)
7.70

Give me measured pIC50, please, for this molecule: CO[C@@H]1CCC[C@H]1C1(C2CCN(CCCOc3ccc(C(=O)O)cc3)CC2)CNCc2ccccc21 (mixture of isomers)
3.31

Give me measured pIC50, please, for this molecule: COC(=O)N[C@H]1CCC[C@@H]1C(C#N)(c1ccccc1)C1CCN(CCC#Cc2ccc(S(=O)(=O)C(F)(F)F)cc2)CC1 (mixture of isomers)
6.76

Give me measured pIC50, please, for this molecule: CCN1Cc2ccccc2C(C2CCCC2)(C2CCN(CC3CN(c4ccc(S(=O)(=O)c5ccnc6cnccc56)cc4)C3)CC2)C1 (stereo not shown)
8.10

Give me measured pIC50, please, for this molecule: CCCC(C)C1(C2CCN(CCCOc3ccc(C#N)cc3)CC2)NCCc2ccccc21 (stereo not shown)
5.48

Give me measured pIC50, please, for this molecule: CC(=O)N[C@@H]1CCC[C@H]1C(C#N)(c1ccccc1)C1CCN(CC2CN(c3ccc(C#N)cc3)C2)CC1 (mixture of isomers)
5.60

Give me measured pIC50, please, for this molecule: CNS(=O)(=O)c1ccc(N2CC(CN3CCC(C4(C5CCCC5)NCCc5c(F)cccc54)CC3)C2)cc1 (stereo not shown)
7.82

Give me measured pIC50, please, for this molecule: CC(=O)N[C@H]1CCC[C@@H]1C1(C2CCN(CC3CN(c4ccc(S(=O)(=O)c5ccncc5)cc4)C3)CC2)CN(C)Cc2ccccc21 (mixture of isomers)
8.30
